Target: Mitogen-activated protein kinase kinase kinase 5 (Homo sapiens, UniProt Q99683); also: in the data inactive means no Kd found up to 30 µM
Sequence (Q99683 whole entry): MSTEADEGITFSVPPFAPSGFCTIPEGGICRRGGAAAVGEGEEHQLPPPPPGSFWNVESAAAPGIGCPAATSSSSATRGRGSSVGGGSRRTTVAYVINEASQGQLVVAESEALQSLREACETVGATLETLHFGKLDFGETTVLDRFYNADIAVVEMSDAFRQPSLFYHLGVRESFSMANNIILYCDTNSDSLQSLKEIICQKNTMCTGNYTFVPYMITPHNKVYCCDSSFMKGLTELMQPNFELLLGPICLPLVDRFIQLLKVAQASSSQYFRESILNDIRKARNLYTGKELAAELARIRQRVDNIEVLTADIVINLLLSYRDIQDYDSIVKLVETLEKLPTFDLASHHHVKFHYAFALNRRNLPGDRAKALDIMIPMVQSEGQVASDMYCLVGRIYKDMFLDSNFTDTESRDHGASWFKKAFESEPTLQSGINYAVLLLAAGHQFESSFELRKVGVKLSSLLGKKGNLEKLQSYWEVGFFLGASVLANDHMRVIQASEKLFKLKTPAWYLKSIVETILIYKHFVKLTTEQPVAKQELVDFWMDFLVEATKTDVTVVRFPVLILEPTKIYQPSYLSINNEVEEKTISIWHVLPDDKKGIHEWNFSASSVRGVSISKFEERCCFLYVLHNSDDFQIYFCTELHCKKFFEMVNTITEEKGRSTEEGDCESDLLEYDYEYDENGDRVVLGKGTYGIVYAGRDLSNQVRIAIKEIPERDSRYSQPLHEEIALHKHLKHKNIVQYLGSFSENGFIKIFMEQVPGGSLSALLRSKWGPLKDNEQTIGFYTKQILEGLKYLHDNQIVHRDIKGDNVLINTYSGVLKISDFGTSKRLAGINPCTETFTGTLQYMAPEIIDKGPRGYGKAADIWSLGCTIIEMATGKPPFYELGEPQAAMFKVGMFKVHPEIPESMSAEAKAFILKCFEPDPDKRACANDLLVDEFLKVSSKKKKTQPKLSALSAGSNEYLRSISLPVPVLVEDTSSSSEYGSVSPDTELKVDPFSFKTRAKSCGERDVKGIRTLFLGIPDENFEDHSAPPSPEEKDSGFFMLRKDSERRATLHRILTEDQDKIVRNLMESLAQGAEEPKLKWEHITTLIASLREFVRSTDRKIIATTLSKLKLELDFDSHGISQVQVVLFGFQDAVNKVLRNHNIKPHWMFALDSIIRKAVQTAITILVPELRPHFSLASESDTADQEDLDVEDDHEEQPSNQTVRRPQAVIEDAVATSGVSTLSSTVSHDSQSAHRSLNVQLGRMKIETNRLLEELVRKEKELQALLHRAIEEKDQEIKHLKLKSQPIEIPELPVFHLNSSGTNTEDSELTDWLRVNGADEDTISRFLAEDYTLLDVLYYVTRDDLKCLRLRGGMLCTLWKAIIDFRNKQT
Activity calls are given as the source filed them.
Field 'call' accepts active, inactive

Previously resolved entries follow.
C[C@@H](Nc1cc(F)cc(F)c1)c1cc(C(=O)N(C)C)cc2c(=O)cc(N3CCOCC3)oc12 [AZD-8186] = inactive
O=C(O)[C@]1(Cc2cccc(Nc3nccs3)n2)CC[C@@H](Oc2cccc(Cl)c2F)CC1 [MK-5108] = inactive
COc1ccc(-c2ccc3c(N4CCOC[C@@H]4C)nc(N4CCOC[C@@H]4C)nc3n2)cc1CO [AZD-8055] = inactive
Cc1cc(Nc2cc(N3CCN(C)CC3)nc(/C=C/c3ccccc3)n2)n[nH]1 [ENMD-2076] = inactive
CC[C@H](Nc1ncnc2[nH]cnc12)c1nc2cccc(F)c2c(=O)n1-c1ccccc1 [IDELALISIB] = inactive
CCCS(=O)(=O)Nc1ccc(F)c(C(=O)c2c[nH]c3ncc(-c4ccc(Cl)cc4)cc23)c1F [VEMURAFENIB] = inactive
Cc1cc2c(F)c(Oc3ncnn4cc(OC[C@@H](C)OC(=O)[C@H](C)N)c(C)c34)ccc2[nH]1 [BRIVANIB ALANINATE] = inactive
CNC(=O)c1ccc(C)c(-n2c(C)cc(OCc3ccc(F)cc3F)c(Br)c2=O)c1 [PH-797804] = inactive
COC(=O)[C@@]1(O)C[C@H]2O[C@]1(C)n1c3ccccc3c3c4c(c5c6ccccc6n2c5c31)C(=O)NC4 [K-252A] = active
Cn1cc(-c2ccc(F)c(C(F)(F)F)c2)nc1C1CCN(c2ncnc3[nH]ncc23)CC1 [LY-2584702] = inactive

Ask: How was Cn1ncc(Cl)c1-c1cc(C(=O)N[C@H](CN)Cc2cccc(F)c2)sc1Cl [AFURESERTIB] classified in this test?
Reply: inactive

Ask: Which result was noted for this compound in the test: O=C(c1ccc(F)c(F)c1Nc1ccc(I)cc1F)N1CC(O)([C@@H]2CCCCN2)C1 [COBIMETINIB]
Reply: inactive

Ask: Entry "Cc1ccc(S(=O)(=O)Nc2nc3ccccc3nc2Nc2ccc3nsnc3c2)cc1" : call = ?
Reply: inactive

Ask: Called result for "CN1CC[C@@H](c2c(O)cc(O)c3c(=O)cc(-c4ccccc4Cl)oc23)[C@@H]1CO"
Reply: inactive

Ask: Each compound tested received a call. Report the one for CCS(=O)(=O)N1CC(CC#N)(n2cc(-c3ncnc4[nH]ccc34)cn2)C1 [BARICITINIB] .
Reply: inactive

Ask: What was the test verdict on CNS(=O)(=O)Nc1nccc(Cc2c(C)c3ccc(Oc4ncccn4)cc3oc2=O)c1F [AVUTOMETINIB] ?
Reply: inactive

Ask: Record lookup: outcome of this test for COc1cc(CCc2cc(NC(=O)c3ccc(N4C[C@@H](C)N[C@@H](C)C4)cc3)n[nH]2)cc(OC)c1 [AZD-4547] ?
Reply: inactive

Ask: How did this test come out for CN1CCC(COc2cnc(-c3cccc(Cn4nc(-c5cccc(C#N)c5)ccc4=O)c3)nc2)CC1 [TEPOTINIB] ?
Reply: inactive
